- Test system: Porcine Atria myofibrils
- Test: Myofibril ATPase assay (PK/LDH NADH-coupled), atria myofibrils
- Format: biochemical
- Recorded Conditions: Table 8

{"Compound": "N#Cc1cnc2c(c1)OC[C@H]2NC(=O)CN1Cc2c(ccc(F)c2F)NC1=O [Compound B64]", "Scale Unit": "nM", "Porcine Atria IC25": 520}
{"Compound": "C[C@H](NC(=O)CN1Cc2c(ccc(F)c2F)NC1=O)c1ncc(F)cc1F [Compound B191]", "Scale Unit": "nM", "Porcine Atria IC25": 40}
{"Compound": "C[C@H](NC(=O)[C@H](C)N1Cc2c(Br)cccc2NC1=O)c1ccc(F)cc1F [Compound B227]", "Scale Unit": "nM", "Porcine Atria IC25": 60}
{"Compound": "C[C@H](NC(=O)CN1C(=O)Nc2ccc(F)cc2C12CC2)c1ccc(C#N)nn1 [Compound B335]", "Scale Unit": "nM", "Porcine Atria IC25": 9420}
{"Compound": "C[C@H](NC(=O)CN1Cc2cc(F)ccc2NC1=O)c1ncc(F)cc1F [Compound B230]", "Scale Unit": "nM", "Porcine Atria IC25": 220}
{"Compound": "Cc1cccc2c1C1(CC1)N(CC(=O)N[C@@H]1COc3cc(C#N)cc(F)c31)C(=O)N2 [Compound B312]", "Scale Unit": "nM", "Porcine Atria IC25": 100}
{"Compound": "C[C@H](NC(=O)CN1C(=O)Nc2ccccc2C12CC2)c1ccc(F)cc1F [Compound B229]", "Scale Unit": "nM", "Porcine Atria IC25": 60}
{"Compound": "O=C(CN1C(=O)Nc2ccc(F)c(F)c2C12CC2)N[C@@H]1COc2cc(F)cnc21 [Compound B296]", "Scale Unit": "nM", "Porcine Atria IC25": 70}
